Assay: inhibition of PEG-3 promoter activity – cell-based, HeLa, luciferase luminescence, primary screen (AID 588405)
Conditions: HeLa PEG-Prom luciferase reporter, overnight, at 20 µM, stronger effect = higher value
Among all 360,000 compounds or so, about 6,200 (1.7%) were called active. Only a selection was taken, and actives are over-represented in it overall.
Readout Type: inhibition (%)
Give bare numbers, in %.

Here are 5 compounds together with their reported answers.
| Compound | Result Number |
| --- | --- |
| CCCCC(=O)N/N=C(\C)CC(=O)Nc1cc(Cl)ccc1OC | 93.5 |
| CCc1nc2c(OCCOc3ccc(F)cc3)cccn2c1N(C)C(=O)c1ccccc1F | 14.6 |
| CCNC(=O)C1(C)CCCN1C(=O)c1ccc(N(C)C)cc1 (stereo unspecified) | -3.48 |
| COc1ccc(Cl)cc1NC(=O)CCS(=O)(=O)c1ccc(Br)cc1 | 21.8 |
| CN1C(=O)c2ccccc2C(C(=O)NCCCN2CCCC2)C1c1c[nH]c2ccccc12 (stereo unspecified) | -1.25 |

// next item, inhibition requested
The reported inhibition of the compound COc1ccc(/C(C)=N/NC(=O)CCC(=O)Nc2ccc(Cl)cc2Cl)c(OC)c1 was -11.2

###

Test: inhibition of PEG-3 promoter activity – cell-based, HeLa, luciferase luminescence, primary screen (AID 588405)
Settings: HeLa PEG-Prom luciferase reporter, overnight, at 20 µM, stronger effect = higher value
About 6,200 (1.7%) of roughly 360,000 compounds were called active. Many of the other results were omitted from the sample, so actives are more common in it than they were.
Readout Type: inhibition (%)
Numbers only, in %.

| Molecule | Unit Label | inhibition |
| --- | --- | --- |
| Cc1c(Cl)c([N+](=O)[O-])nn1Cc1ccc(C(=O)N/N=C\c2cc(Cl)ccc2O)o1 | % | 61.5 |
| CN(c1ccccc1)S(=O)(=O)c1cc(C(=O)Nc2nc3ccccc3[nH]2)ccc1Cl | % | 5.63 |
| O=c1c2cc(Br)ccc2nc(-c2cccc(Cl)c2)n1O | % | 31.2 |
| CCN1CCCC1CNC(=O)c1cc2c(=O)n(C)c3ccccc3c2n1C (configuration not stated) | % | -10.3 |
| COc1ccccc1CCNC(=O)C1CCN(C(=O)/C=C/c2ccccc2)CC1 | % | -46.9 |

Hey, quick one: what's inhibition for each of these?
1. O=C(NCCN1CCOCC1)/C(=C/c1ccc(F)cc1)NC(=O)c1ccccc1
2. O=C(NC(Cc1ccccc1)C(=O)N1CCCC1C(=O)O)c1ccccc1 (configuration not stated)
3. O=C(NCCN1CCOCC1)c1ccc(/C=C2\Sc3ccccc3N(Cc3ccc(F)cc3)C2=O)cc1
4. CCNC(=O)C1(C)CCCN(Cc2noc(-c3ccccc3OC)n2)C1 (configuration not stated)
5. CCOC(=O)C(C(=O)OCC)C(C#N)c1ccccc1 (configuration not stated)
6. CCOC(=O)/C=C/C(=O)OCC(=O)NC(c1ccccc1)c1ccccc1
7. CCCC(=O)N1CCC1(C)C(=O)Nc1ccc(-n2cncn2)cc1 (configuration not stated)

-17.8
11.6
66.6
2.68
1.45
66.3
5.62

Respectfully, I request inhibition for each entry included below.
1. CC1=CC(C)(C)NC(=S)N1NC(=O)c1ccccc1Cl
2. Cc1cc(=O)oc2cc(OCC(=O)Nc3nnc(C4CC4)s3)ccc12
3. Cc1ccccc1CN1C(=O)c2ccccc2Sc2ccc(C(=O)NCCCN3CCOCC3)cc21
4. CCOC(=O)Cc1csc(NC(=O)COc2ccc3c(C)cc(=O)oc3c2)n1
5. CCN(C(=O)CN1C(=O)/C(=C/c2ccc(F)cc2)SC1=S)C1CCS(=O)(=O)C1 (configuration not stated)
6. COCCNc1ncnc2c1ncn2[C@H]1CN(CCN2CCOCC2)C[C@@H](CO)O1

-9.1
2.23
26.3
-3.01
-2.93
0.57

Values were extracted from PubChem BioAssay AID588405.
